Reference for the values: a melting point compilation (Tetko et al.; mined from patent text by program, amines drawn as free bases though some values may be those of a salt)

Could you please report measured melting point for the items listed next?

Return reported melting point values for all items listed beneath this line.
1. O=C1c2ccc(Cl)cc2C(=O)C(O)(O)C1(O)O
2. CCCCc1nc2c(OC)ccc(CCN(C)C)c2[nH]1
3. CCOc1cccc(-c2ccc(C3=CCN(S(=O)(=O)CC(=O)NO)CC3)cc2C)c1
4. COc1cc(OC)c(OC)c(-c2ccc(N(C)CCN(C)c3ccc(-c4cc(OC)cc(OC)c4OC)nc3)cn2)c1
5. O=c1c2cc(O)c(O)cc2c2cc(O)c(O)cc2n1CCCc1ccccc1

Result:
1: 134 to 136 °C; 2: 116 to 122 °C; 3: 151 to 153 °C; 4: 171 to 172 °C; 5: 155 to 158 °C

* * *

Exercise: state measured melting point for each of the compounds provided.

For every record below, what is its melting point?
1. Cn1nc(-c2ncc(N)nc2-c2ccccc2)ccc1=O
2. C[Si](C)(C)CCSCCCNC(=O)n1cc(F)c(=O)[nH]c1=O
3. N#Cc1c(Cl)c2cc(F)ccc2n(Cc2ccccc2)c1=O
4. Cc1oc(-c2ccccc2)nc1COc1cc(CO)on1
5. NCC1CCn2c(c(C3=C(c4cccc(C(F)(F)F)c4)C(=O)NC3=O)c3ccccc32)C1 (stereo unspecified)
6. Cc1nc(Nc2ccc(F)cc2)nc(Cl)c1C
7. CCOC(=O)c1c(C)cc2c(c1C)c(=O)n(-c1ccccc1C(F)(F)F)c(=O)n2CCN1CCCCC1
8. O=C1NCCNc2c1cccc2[N+](=O)[O-]

Result:
1. 202 to 204 °C
2. 114 to 115 °C
3. 228 °C
4. 99 to 100 °C
5. 202 to 204 °C
6. 114 °C
7. 144 to 145 °C
8. 191 to 195 °C

List reported melting point for each of these compounds:
1. CC1(C)C2CC3=C(CCC(=O)O3)C1C2 (stereo unspecified)
2. COCCc1nc2c(N)nc3ccc(CCC(=O)N(C)C)cc3c2n1CCCN1CCCC1=O
3. COc1cc(C(C)=O)ccc1C1CCCCO1 (stereo unspecified)
4. CN1CCN(c2cc(Sc3ccccc3)nc(-c3ccccc3)n2)CC1
5. CCN(CCc1ccc(NS(C)(=O)=O)cc1)CCc1ccc(NS(C)(=O)=O)cc1
6. Cc1ccc(C=C2CSCC3=C2N(CC(F)(F)F)NC3c2ccc(C)cc2)cc1 (stereo unspecified)
7. Oc1ccc2c(c1)CCc1c-2cc2ccc(O)cc2c1C1CCCC1

Result:
1. 60 °C
2. 184 to 186 °C
3. 67 to 69 °C
4. 125 to 128 °C
5. < 60 °C
6. 168 to 178 °C
7. 233 to 235 °C

* * *

I'd appreciate it if you could supply melting point values for the items below.

Some solved entries appear below for comparison.
[
  {
    "chemical_string": "O=C(c1nc2ccc(O)cc2[nH]1)N1CCC(=Cc2ccccc2)CC1",
    "melting point": "148 °C"
  },
  {
    "chemical_string": "Nc1c(Br)cccc1CS(=O)(=O)c1ccccc1",
    "melting point": "174 to 177 °C"
  },
  {
    "chemical_string": "O=C(N[C@H]1CC[C@H](CCN2CCN(c3nccc4c3OCC4)CC2)CC1)c1ccc(Cl)cc1Cl",
    "melting point": "244 °C"
  },
  {
    "chemical_string": "CCc1ccc(SCc2c(C(C)C)nc(C(C)C)c(CO)c2-c2ccc(F)cc2)cc1",
    "melting point": "102 to 103 °C"
  },
  {
    "chemical_string": "CC(C)(C)OC(=O)COCCCCS(=O)(=O)c1cnc(-c2ccccc2)c(-c2ccccc2)n1",
    "melting point": "88 to 90 °C"
  }
]

Could I get melting point for every one of these entries?
1. COc1ccc2nc(C)c(S(N)(=O)=O)n2n1
2. COc1cccc(COc2ncc(F)c(NS(N)(=O)=O)n2)c1
3. COCOc1cc(Cl)ccc1-c1cc(-c2cccc(N(C(=O)OC(C)(C)C)C(=O)[C@@H](N)Cc3c[nH]cn3)c2)c(C#N)c(NC(=O)c2ccco2)n1
4. CN1CCc2ccc3cc[nH]c3c2CC1
5. O=c1nc(C2CCCCC2)c2cc(Cl)ccc2[nH]1

Result:
251 °C
126 to 130 °C
149 to 150 °C
150 to 153 °C
270 °C

Task: Identify the reported melting point for the following entry. CC(C)(C)c1cc(C(=O)Nc2nc(C(N)=O)c(CCN3CC4CCC(CC4)C3)s2)cc(C(C)(C)C)c1O
Result: 275 to 276 °C

* * *

For each entry below, report its melting point value.

[
  {
    "chemical_string": "Cc1c(Cl)nc(=O)n(C)c1N",
    "endpoint_label": "melting point",
    "observed": "254 to 256 °C"
  },
  {
    "chemical_string": "C#CCOC(=O)c1c(F)cccc1Oc1nc(OC)cc(OC)n1",
    "endpoint_label": "melting point",
    "observed": "49 to 50 °C"
  }
]

Task: Given CCCCCCOc1ccc(CCCCCCCCC(=O)N(C)O)cc1 , respond with its melting point.
Result: 59 to 61 °C

* * *

Please provide measured melting point for the entries that follow.

Take a look at these entries with their results.
[
  {
    "compound": "COC(OC)c1cc(=O)c2ccccc2o1",
    "observed": "64 to 68 °C"
  },
  {
    "compound": "O=[N+]([O-])c1cc(OCC2=CCCSC2)c(Cl)cc1F",
    "observed": "91 to 94 °C"
  },
  {
    "compound": "O=Cc1ccc(-c2cc(O)ccc2O)cc1",
    "observed": "203 to 205 °C"
  },
  {
    "compound": "O=S(=O)(Nc1ccc2c(OCc3csc(-c4ccc(OC(F)(F)F)cc4)n3)cccc2c1)C(F)(F)F",
    "observed": "131 to 132 °C"
  },
  {
    "compound": "CC1CCc2c(N3CCC(O)CC3)ccc3c(=O)c(C(=O)O)cn1c23 (configuration not stated)",
    "observed": "238 to 240 °C"
  },
  {
    "compound": "CC(C)(C)OC(=O)N[C@H](Cc1ccc(Cl)c(Cl)c1)C(=O)N1CCC[C@H]1C(=O)NCC1CCc2n[nH]cc2C1 (some centres not stated)",
    "observed": "100 to 103 °C"
  },
  {
    "compound": "Nc1ccc2ncnc(Nc3ccc(OCc4ccccc4)cc3)c2c1",
    "observed": "173 to 175 °C"
  },
  {
    "compound": "ON=Cc1cn(C(c2ccccc2)(c2ccccc2)c2ccccc2)c(F)n1",
    "observed": "147 to 149 °C"
  },
  {
    "compound": "N#Cc1cc(-c2cccc(F)c2)c[nH]c1=O",
    "observed": "261 to 266 °C"
  },
  {
    "compound": "O=C(CCl)N1CC(c2ccc(F)cc2)Sc2ccccc21 (configuration not stated)",
    "observed": "122 to 124 °C"
  }
]

I'm hoping you can list melting point for every compound here, please.
1. CCCCCCCCCCS(=O)(=O)NC(=O)c1cnc(C(=O)O)c(OC)c1
2. CCOC(=O)C1CCN(S(C)(=O)=O)CC1
3. Nc1nc(-c2cccnc2)c(Cl)s1
4. CC(C)(C)C(=O)N(NC(=O)c1ccccc1)C(C)(C)C

Result:
1. 145 °C
2. 91 to 92 °C
3. 202 °C
4. 217 to 220 °C

Give me melting point for each of these compounds, listed below.
1. CC(=O)NC[C@H]1CN(c2ccc(C3CCNCC3)c(F)c2)C(=O)O1
2. CCN(CC)CCC(=O)O
3. Nc1cccc(Cn2c(-c3ccc(NC(=O)c4cccc(Br)c4)cc3)ccc2-c2ccccc2Cl)n1

Result:
1: 109 to 110 °C; 2: 65 to 67 °C; 3: 116 to 122 °C

* * *

For each entry below, report its melting point value.

Consider the following items and state reported melting point for each.
1. CC(CN1CCCC1)N1c2ccccc2Sc2ccc(C3=NC4CCCCC4N3)cc21 (racemic)
2. O=S(=O)(Nc1ccc2c(OCc3cccc(-c4ccc(F)cc4)n3)cccc2c1)C(F)(F)F
3. O=C(O)c1ccccc1NCCCn1c2ccc(O)cc2c2c3c(c(-c4ccccc4Cl)cc21)C(=O)NC3=O
4. Cc1ccc(OCc2c(F)cccc2F)c(N)n1
5. COc1ccc(C(=O)Nc2ccc(F)cc2)cc1Nc1ccc(F)cc1

Result:
1. 109 °C
2. 173 to 174 °C
3. 261 to 263 °C
4. 121 to 123 °C
5. 193 to 194 °C

I have 3 compounds here; please give me melting point for each one.
1. CCC(c1oc2ccc(F)cc2c(=O)c1-c1ccccc1)n1cnc2c(N)ncnc21 (stereo not given)
2. COC(=O)Cc1cc(=O)[nH]c2cc(Br)ccc12
3. COCCOc1cc(C(F)(F)F)cnc1-c1nc(C)c(-c2ccnc(Nc3ccc(N4CCOCC4)cc3)n2)s1

Result:
["266 to 272 °C", "208 to 210 °C", "175 to 178 °C"]

Go through the items and report each one's melting point.
1. N#CCN1CCC(c2n[nH]c3cc(F)ccc23)CC1
2. CCOC(=O)c1cn(C)c2nc3cc(Cl)c(F)cc3cc2c1=O
3. CCCCCCCSC[C@H](N[C@@H](C)C(=O)N1CCC[C@H]1C(=O)O)C(=O)O
4. N#Cc1cc(O)cc(OCCc2ccccn2)c1N
5. Oc1ccccc1C=Cc1cccc2[nH]ccc12
6. CCOC(=O)Cc1cc2ccc(Br)cc2[nH]1
7. CC(Oc1ncn(-c2cccc(Br)c2)n1)C(=O)N1CCCC1 (stereo not given)

Result:
1. 149 to 151 °C
2. 360 to 362 °C
3. 75 to 83 °C
4. 149 to 150 °C
5. 140 °C
6. 67 to 69 °C
7. 111 to 113 °C
